Measured values drawn from a melting point compilation (Tetko et al.) for this set.

parameter.measured: melting point

compound	melting point
CC(C)CNC(=O)c1cc(N)ccc1Cl	109 to 111 °C

Requested field: melting point. Item: Nc1nonc1C(=O)N1CCCC1
192 to 194 °C

Which measured melting point value corresponds to Sc1nnc(-c2ccco2)o1 ?
173 to 175 °C

Can you share its melting point? I mean this compound: COCCOc1ccc(C(C)=O)cc1OC
85 to 87 °C

----------
// reported melting point for each item listed

molecule	melting point
Cc1cccn2cc(COc3ccc(C=O)cc3)nc12	122 to 124 °C
Nc1ccc(CC2CC(=O)NC2=O)cc1 (centres undefined)	138 to 140 °C
NC(=S)Nc1ccc(OC(F)(F)F)cc1	136 to 138 °C
COc1cc(C=O)cc(OC)c1OC(F)F	115 to 117 °C
COc1ccc(NCC(=O)NN)cc1	94 to 98 °C
N=C(N)c1ccc(N2CCCC2)cn1	209 to 211 °C

Please report the recorded melting point for CC(C)=CC(=O)NCc1ccc(C(=O)O)cc1 .
187 to 189 °C

Please look up its melting point: Cn1cc(Cl)cc1C(=O)NN
168 to 170 °C

----------
parameter.measured: melting point

Here's what some known entries look like.
compound	melting point
OCc1noc(-c2cccc(Cl)c2)n1	103 to 105 °C
CC(=O)c1cncnc1	63 to 65 °C
Cc1ccc2[nH]cc(CCC(=O)O)c2c1	126 to 128 °C

Field request: melting point | item: Cc1cc(S(N)(=O)=O)cc(N)c1C
159 to 161 °C

Give the measured melting point of COC(=O)C(Cl)c1cccc(C#N)c1 (stereo not given) .
49 to 51 °C

# lookup: melting point of O=C(O)CCOc1cccc(Br)c1
60 to 69 °C

Record request: melting point value, item O=C(O)c1nn(-c2ccccc2)cc1OC(F)F
134 to 136 °C

For the compound shown here, O=C1CC(C(=O)O)CCN1 (stereo not given) , give the reported melting point.
164 to 166 °C

Requested read-out: melting point. Entry: Nc1c(C(=O)O)cnc2ccccc12
303 to 305 °C

Look up melting point for this compound: CCOc1ccc(C(=O)O)cc1C
198 to 200 °C

I would be grateful if you could share the reported melting point for O=C(O)Cc1cccc2sccc12 .
127 to 129 °C

Can you look up the measured melting point of O=C(O)Cc1coc2cc(O)ccc12 for me?
127 to 129 °C

For O=C(O)c1ccc(-c2ccc(Cl)c(Cl)c2)s1 , what is its reported melting point?
253 to 255 °C

Name the reported melting point value associated with the compound COc1cccc(-c2nn(Cc3ccccc3)cc2C(=O)O)c1
174 to 176 °C

Endpoint output: melting point of COC(=O)c1cnc[nH]1 . Value?
154 to 156 °C

----------
Attribute: melting point

Answered examples (5):
compound	endpoint.result
CC1(C)CC(=O)c2ccccc2O1	87 to 89 °C
Nc1cc(C(F)(F)F)ccc1C(=O)O	175 to 176 °C
O=C(O)C1CCCN(S(=O)(=O)c2ccc(Br)cc2)C1 (stereo not given)	207 to 209 °C
O=C(O)c1c(Cl)nc2ccccc2c1Cl	167 to 169 °C
Cc1noc(C)c1COc1cccc(C(=O)O)c1	157 to 159 °C

Report melting point for Cc1oc2cc(O)ccc2c(=O)c1Oc1ccccc1 please.
235 to 237 °C

Query (compound): NS(=O)(=O)Cc1ccccc1[N+](=O)[O-] ; field requested: melting point
131 to 133 °C
